- system_name: T1, GST-prIL16 fusion protein (PDZ domains 1-2) (Homo sapiens (Human), UniProt Q14005 1111-1324)
- T1 construct: also called putative interleukin 16 precursor; not shown: glutathione S-transferase encoded by vector pGEX-3X (Pharmacia)
- T1 sequence: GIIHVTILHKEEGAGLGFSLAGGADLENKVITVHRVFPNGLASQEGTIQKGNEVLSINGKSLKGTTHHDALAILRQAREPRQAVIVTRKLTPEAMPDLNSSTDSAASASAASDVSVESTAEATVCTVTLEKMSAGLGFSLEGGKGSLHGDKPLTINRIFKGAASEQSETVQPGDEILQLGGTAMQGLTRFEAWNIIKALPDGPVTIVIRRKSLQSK
- measurement_notes: A/G assays
Ends that are not written are not given here. * marks the point of attachment. Biotin = O=C1N[C@H]2[C@H](CS[C@H]2CCCCC(=O)*)N1

binder	binding result
Biotin-SSKSKSSEESQTFFGLYKL (not fully specified, also called FasLigand; Fas ligand) [FasL C-terminal peptide AA23L-M, biotinylated]	no binding
Biotin-LERTSSVSPSTAEPELSIVF (Only the last four residues are seen in the excerpts) [CC CKR-3 C-terminal peptide AA43L]	no binding
Biotin-SPQPDSTDNDDYDDISAA [CD6 C-terminal peptide AA6L, biotinylated]	no binding
Biotin-CAISGTSSDRGYGSPRYAEV (also called AA3L-V) [Clasp-4 C-terminal peptide AA3L, biotinylated]	no binding
Biotin-YSATYSELEDPGEMSPPIDL (also called FceRlb; FcεRβI) [FceRIb C-terminal peptide AA25L, biotinylated]	no binding
Biotin-STNHSIGSTQSTPCSTSSMA (also called CD105 (endoglin)) [CD105 C-terminal peptide AA16L, biotinylated]	no binding
Biotin-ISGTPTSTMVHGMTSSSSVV [Clasp-2 C-terminal peptide AA2L, biotinylated]	no binding
Biotin-PSWRRSSLSESENATSLTTF (also called CXCR5) [BLR-1 C-terminal peptide AA45L, biotinylated]	no binding
Biotin-ISKATPALPTVSISSSAEV (also called AA1L-R) [Clasp-1 C-terminal peptide AA1L, biotinylated]	no binding
Biotin-DLGNMEENKKLEENNHKTEA (also called CD166 (CD6L)) [CD166 C-terminal peptide AA20L, biotinylated]	no binding
Biotin-LNFPLLQGIRVHGMEALGSF (Only the last four residues are seen in the excerpts) [CD114 (G-CSFR) C-terminal peptide AA27L]	no binding
Biotin-ENLAPVTTFGKTNGYIA (also called CD148 (DEP-1)) [CD148 C-terminal peptide AA19L, biotinylated]	no binding
